Origin of the recorded values: paper PMC8148075

Tested on: EC9706 cells
Assay: CCK-8 cell proliferation assay, EC9706
Format: cell-based, human
Details: Homo sapiens, EC9706, 72 h
MEASUREMENT_NAME: IC50 (µM)

compound="C[S+]([O-])CCCCN=C=S (stereo not shown) [SFN, Sulforaphane]" measurement_name=IC50 value_unit=µM result_value=17.5
